Origin of measurements: patent USRE39591E1

Tested on: up to 32 different microorganisms
Test: in vitro antibacterial activity (MIC), agar dilution on Brain Heart Infusion (BHI) agar with Steers replicator
Type: cell-based
Details: Streptococcus Pneumonia 5649 (code ZZA); unit assumed
parameter: MIC (µg/mL)
Give your result in µg/mL as a bare value.

q: Consider the compound shown here: CCC1OC(=O)C(C)C(=O)C(C)C(OC2OC(C)CC(N(C)C)C2O)C(C)(OCC=Cc2cnc3ccccc3c2)CC(C)C(=O)C(C)C2N(CC=Cc3cnc4ccccc4c3)C(=O)OC12C (stereo not shown) What is its recorded MIC?
a: 2

q: Which MIC is reported for this compound? CC[C@H]1OC(=O)[C@H](C)C(=O)[C@H](C)[C@@H](O[C@@H]2O[C@H](C)C[C@H](N(C)C)[C@H]2O)[C@@](C)(OCCNCCc2ccccc2)C[C@@H](C)C(=O)[C@H](C)[C@@H](O)[C@]1(C)O
a: 4

q: I'd like to know its MIC. The compound in question is CC[C@H]1OC(=O)[C@H](C)C(=O)[C@H](C)[C@@H](O[C@@H]2O[C@H](C)C[C@H](N(C)C)[C@H]2O)[C@@](C)(OCC(O)C#N)C[C@@H](C)C(=O)[C@H](C)[C@@H](O)[C@]1(C)O (stereo partly shown)
a: 2

q: Endpoint output: MIC of CC[C@H]1OC(=O)[C@H](C)C(=O)[C@H](C)[C@@H](O[C@@H]2O[C@H](C)C[C@H](N(C)C)[C@H]2O)[C@@](C)(OCCCc2ccccc2)C[C@@H](C)C(=O)[C@H](C)[C@H]2OC(=O)O[C@@]21C . Value?
a: 1
